# study.system: Steroid 17-alpha-hydroxylase/17,20 lyase (Rattus norvegicus)
# Sequence (P11715 whole entry): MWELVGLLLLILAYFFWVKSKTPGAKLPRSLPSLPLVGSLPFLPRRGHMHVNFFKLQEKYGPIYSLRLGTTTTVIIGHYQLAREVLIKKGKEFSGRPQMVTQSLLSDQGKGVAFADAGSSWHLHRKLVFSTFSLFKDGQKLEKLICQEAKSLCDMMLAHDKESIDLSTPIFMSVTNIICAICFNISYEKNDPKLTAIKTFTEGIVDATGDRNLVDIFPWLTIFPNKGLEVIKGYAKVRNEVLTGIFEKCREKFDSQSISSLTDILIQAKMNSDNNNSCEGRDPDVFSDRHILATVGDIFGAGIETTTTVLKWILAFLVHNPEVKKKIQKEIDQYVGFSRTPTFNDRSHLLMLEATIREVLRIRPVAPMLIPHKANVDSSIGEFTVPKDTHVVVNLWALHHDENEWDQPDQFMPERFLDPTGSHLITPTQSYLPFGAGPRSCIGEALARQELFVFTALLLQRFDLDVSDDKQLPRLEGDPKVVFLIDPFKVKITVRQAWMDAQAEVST
# assay.method.text: Inhibition of Steroid 17-alpha-hydroxylase/17,20 lyase from rat testes microsomal preparation
readout.name: IC50 (µM)

>>> numeric_result("Oc1c(F)c(F)c(F)c(F)c1/N=N/c1c(F)c(F)c(F)c(F)c1F")
16
>>> numeric_result("CC(=O)N1CCN(c2ccc(OCC3COC(Cn4ccnc4)(c4ccc(Cl)cc4Cl)O3)cc2)CC1 (centres undefined)")
11
>>> numeric_result("Fc1c(F)c(F)c2c(c1F)N=Nc1c(F)c(F)c(F)c(F)c1O2")
15
>>> numeric_result("Oc1c(F)c(F)c(/N=N/c2c(F)c(F)c(F)c(F)c2F)c(F)c1F")
33
